# assayed system: CCR2 (Homo sapiens, UniProt P41597)
# Construct: (leukophoresis pack); host or cells: human peripheral blood mononuclear cells (PBMCs) from a normal human leukophoresis pack
# Sequence (P41597 whole entry): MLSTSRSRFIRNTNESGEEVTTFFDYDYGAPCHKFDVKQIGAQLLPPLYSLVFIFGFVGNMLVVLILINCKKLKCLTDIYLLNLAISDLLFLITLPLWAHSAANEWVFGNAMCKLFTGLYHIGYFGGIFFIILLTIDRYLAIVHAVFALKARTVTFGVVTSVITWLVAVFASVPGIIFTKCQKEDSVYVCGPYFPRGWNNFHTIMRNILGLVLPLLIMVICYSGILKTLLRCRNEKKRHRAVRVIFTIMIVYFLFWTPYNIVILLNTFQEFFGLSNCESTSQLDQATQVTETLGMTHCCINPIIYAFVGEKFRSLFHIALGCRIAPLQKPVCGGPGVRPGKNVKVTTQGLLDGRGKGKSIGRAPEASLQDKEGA
# test name: hCCR2 (125-I hMCP-1) small molecule binding assay on human PBMCs
# assay conditions: 125I-MCP-1, human PBMCs, 1 hr preincubation; read-out: IC50 (nM) 1 hr preinc
measured property: log10 of IC50 (log10 of the value in nM)
Values are log10 of IC50 in nM.

Sample records with log10 of IC50:
| molecule | log10 of IC50 |
| --- | --- |
| CO[C@@H]1COCC[C@@H]1N[C@@H]1CC[C@@](C(=O)N2C[C@@H]3C[C@H]2CN3c2cc(C(F)(F)F)cc(C)n2)(C(C)C)C1 [Example 21] | 0.49 |
| CO[C@@H]1COCC[C@@H]1N[C@@H]1CC[C@](CC(F)F)(C(=O)N2C[C@@H]3C[C@H]2CN3c2cncc(C(F)(F)F)n2)C1 [Example 29] | 0.44 |
| CO[C@@H]1COCC[C@@H]1N[C@@H]1CC[C@](CC(F)(F)F)(C(=O)N2C[C@@H]3C[C@H]2CN3c2nccc(C(F)(F)F)n2)C1 [Example 35] | 0.74 |
| CO[C@@H]1COCC[C@@H]1N[C@@H]1CC[C@@](C(=O)N2C[C@@H]3C[C@H]2CN3c2cc(F)cc(C(F)(F)F)c2)(C(C)C)C1 [Example 23] | -0.03 |
| CO[C@@H]1COCC[C@@H]1N[C@@H]1CC[C@](CC(F)F)(C(=O)N2C[C@@H]3C[C@H]2CN3c2ccnc(C(F)(F)F)n2)C1 [Example 30] | 1.07 |

API: the following record is the query input.
[ask] Could you tell me which log10 of IC50 is on file for CO[C@@H]1COCC[C@@H]1N[C@@H]1CC[C@](CC(F)(F)F)(C(=O)N2C[C@@H]3C[C@H]2CN3c2cc(C(F)(F)F)ccn2)C1 [Example 33] ?
[reply] 1.07

These data points were gathered from patent US8946413B2.
